B1: C8orf76 (parent)
chain: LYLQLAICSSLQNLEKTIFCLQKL

- Variants of: B1
- ASSAY_REMARKS: protein stability index of a GFP-peptide fusion (GPS, HEK-293T) (PSI 1-6); higher = more stable;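 also: lentivirally expressed fusions sorted by FACS into six bins by GFP to DsRed ratio, PSI derived from sequencing read proportions per bin multiplied by bin number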
- DETAILS: c terminus: a fixed tail appended
Short version: protein stability index at least 3 is yes (1), less is no (0).

Dear colleague, could you confirm whether "F19C" has protein stability index at or above 3?
no (0)

And what about the variant "L3E" ?
no (0)

And what about the variant "L5T" ?
no (0)

And what about the variant "N13P" ?
yes (1)

And what about the variant "A6P" ?
no (0)

And what about the variant "Y2R" ?
yes (1)
